Biological target: T1, human NGF (human, UniProt P01138 122-241)
T1 construct: also called human Nerve Growth Factor; hN
T1 chain: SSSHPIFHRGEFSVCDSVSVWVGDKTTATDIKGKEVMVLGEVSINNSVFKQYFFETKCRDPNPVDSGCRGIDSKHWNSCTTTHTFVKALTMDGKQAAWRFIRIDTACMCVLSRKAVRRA
Assay: SPR (Biacore T200), 100 nM mAb on NGF chip, similarity to parent mAb
Measurement Name: Percent Similarity Score (KD on hN) (%)
Give bare numbers, in %.

Known results for binders:
Indicate its recorded Percent Similarity Score (KD on hN); the binder in question is can48L2VL_D52A (antibody, V domains shown, CDR scanning mutant of ZTS-842 (48L2)) VH: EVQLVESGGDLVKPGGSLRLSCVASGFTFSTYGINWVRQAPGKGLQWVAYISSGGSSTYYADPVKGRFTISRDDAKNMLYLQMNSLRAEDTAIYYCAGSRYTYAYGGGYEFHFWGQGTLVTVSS VL: QAVLNQPASVSGALGQKVTISCSGSTMDIDIFGVSWYQQLPGKAPKLLVDSAGDRPSGIPDRFSGSRSGNSGTLTITGLQAEDEADYHCQSGDSTLGALAIFGGGTHVTVL 100

Indicate its recorded Percent Similarity Score (KD on hN); the binder in question is can48L2VH_T58A (antibody, V domains shown, CDR scanning mutant of ZTS-842 (48L2)) VH: EVQLVESGGDLVKPGGSLRLSCVASGFTFSTYGINWVRQAPGKGLQWVAYISSGGSSAYYADPVKGRFTISRDDAKNMLYLQMNSLRAEDTAIYYCAGSRYTYAYGGGYEFHFWGQGTLVTVSS VL: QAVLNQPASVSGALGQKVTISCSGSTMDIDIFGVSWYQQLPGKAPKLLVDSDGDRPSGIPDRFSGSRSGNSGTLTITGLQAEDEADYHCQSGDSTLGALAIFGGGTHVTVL 99.9

Indicate its recorded Percent Similarity Score (KD on hN); the binder in question is can48L2VL_D28A (antibody, V domains shown, CDR scanning mutant of ZTS-842 (48L2)) VH: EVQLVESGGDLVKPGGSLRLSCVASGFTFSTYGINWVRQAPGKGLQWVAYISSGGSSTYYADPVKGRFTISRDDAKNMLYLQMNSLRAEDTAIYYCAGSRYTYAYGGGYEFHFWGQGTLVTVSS VL: QAVLNQPASVSGALGQKVTISCSGSTMAIDIFGVSWYQQLPGKAPKLLVDSDGDRPSGIPDRFSGSRSGNSGTLTITGLQAEDEADYHCQSGDSTLGALAIFGGGTHVTVL 99.6

Indicate its recorded Percent Similarity Score (KD on hN); the binder in question is can9L12VL_G53A (antibody, V domains shown) VH: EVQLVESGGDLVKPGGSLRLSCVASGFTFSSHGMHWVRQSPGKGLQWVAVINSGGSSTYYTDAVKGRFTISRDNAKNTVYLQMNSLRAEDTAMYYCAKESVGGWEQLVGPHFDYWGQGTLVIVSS VL: QSVLTQPTSVSGSLGQRVTISCSGSTNNIGILGASWYQLFPGKAPKLLVYGNANRPSGVPDRFSGADSGDSVTLTITGLQAEDEADYYCQSFDTTLGAHVFGGGTHLTVL 10

Now for another entry.
Indicate its recorded Percent Similarity Score (KD on hN); the binder in question is can9L12VH_S56A (antibody, V domains shown) VH: EVQLVESGGDLVKPGGSLRLSCVASGFTFSSHGMHWVRQSPGKGLQWVAVINSGGASTYYTDAVKGRFTISRDNAKNTVYLQMNSLRAEDTAMYYCAKESVGGWEQLVGPHFDYWGQGTLVIVSS VL: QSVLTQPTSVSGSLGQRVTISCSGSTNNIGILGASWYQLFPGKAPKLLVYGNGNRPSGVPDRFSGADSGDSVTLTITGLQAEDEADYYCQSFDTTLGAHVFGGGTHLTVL 40.5

Provenance of the data: patent US20210221899A1
